Where these numbers come from: ChEMBL document CHEMBL2086265

assay: Intrinsic clearance in mouse liver microsomes at 2 uM assessed per mg of protein; format: ADME, Microsome; conditions: read-out: CLH
# key: entry, value: microsomal CLint at 2 µM
Kindly answer with a numeric value in µL/min/mg, unit omitted.

>>> result_value("C#CCn1c(=O)c2c(-c3nc(C#N)cn3C)n(Cc3ccnc4ccc(Cl)cc34)nc2n(CC2CC2)c1=O")
28
>>> result_value("Cn1cc(C#N)cc1-c1c2c(=O)n(C)c(=O)n(CC3CC3)c2nn1Cc1ccnc2ccc(Cl)cc12")
50
>>> result_value("CC(=O)c1cc(-c2c3c(=O)n(C)c(=O)n(CC4CC4)c3nn2Cc2ccnc3ccc(Cl)cc23)n(C)c1")
53

Summary for this compound, "Cn1cnnc1-c1c2c(=O)n(C)c(=O)n(CC3CC3)c2nn1Cc1ccnc2ccc(Cl)cc12" : microsomal CLint at 2 µM is 64
